# test-method-notes: logP by reversed-phase HPLC (LC-MS), acidic range
# Format: physicochemical
# condition-summary: c18 hplc, formic acid/acetonitrile; pH 2,7, 0,1 % aqueous Ameisensäure / Acetonitril, C 18, 55°C; read-out: logP (HCOOH)
readout: chromatographic logP
Respond with the number and no other words.

Problem: Dear colleague, please send me the reported chromatographic logP for `CC(C)C(=O)Nc1cc(NC(=O)C2CC2)cc(-c2ccc(C(F)(F)C(F)(F)F)c(F)c2)c1` when you can.
Solution: 3.7

---

# test-method-notes: logP by reversed-phase HPLC (LC-MS), neutral range
# Type: physicochemical
# condition-summary: c18 hplc, ammonium bicarbonate/acetonitrile; pH 7.8, 0,001 molar aqueous Ammoniumhydrogencarbonat / Acetonitril, C 18, 55°C
For each record, check the reported chromatographic logP: if it is below 4 write criterion met, else write criterion not met.

Problem: In plain terms, does `Nc1cc(-c2ccc(OC(F)(F)F)cc2)cc(NC(=O)C2CC2)n1` come in under 4 for chromatographic logP?
Solution: criterion met

Problem: Could you please tell me whether chromatographic logP recorded for `Nc1cc(Br)cc(NC(=O)C2CC2)n1` is less than 4?
Solution: criterion met

Problem: Given Nc1cc(Br)c(Cl)c(N)n1 [4-Brom-3-chlorpyridin-2,6-diamin] , is recorded chromatographic logP strictly lower than 4?
Solution: criterion met

Problem: Report whether reported chromatographic logP is lower than 4 (strictly) for FC(F)(F)Oc1ccc(-c2cc(NC(=S)C3CC3)nc(NC(=S)C3CC3)c2)cc1 [I-032]
Solution: criterion not met

Problem: Is chromatographic logP strictly under 4 for the entry `Nc1cc(N)cc(-c2ccc(C(F)(F)C(F)(F)F)c(F)c2)c1` ?
Solution: criterion met

Problem: Dear colleague, could you confirm whether chromatographic logP of COC(=O)N(C(=O)C1CC1)c1cc(-c2ccc(OC(F)(F)F)cc2)cc(N(C(=O)OC)C(=O)C2CC2)n1 [I-037] falls below 4? Thanks.
Solution: criterion met

Problem: chromatographic logP strictly < 4 for this compound? `CC1(C)OB(c2cc(NC(=O)C3CC3)nc(NC(=O)C3CC3)c2)OC1(C)C`
Solution: criterion met

Problem: Hello, is chromatographic logP of the following compound strictly smaller than 4? `CC(C)C(=O)Nc1cc(N)cc(-c2ccc(C(F)(F)C(F)(F)F)c(F)c2)c1`
Solution: criterion met

Problem: Lab note: chromatographic logP threshold 4. Does this compound come in strictly under it? O=C(Nc1cc(-c2ccc(OC(F)(F)F)cc2)cc(NC(=O)C2(F)CC2)n1)C1CC1 [I-012]
Solution: criterion met

Problem: is_below(chromatographic logP, 4) for O=C(Nc1cc(-c2ccc(OC(F)(F)F)cc2)cc(NC(=S)C2CC2)n1)C1CC1 [I-033] ?
Solution: criterion not met

Problem: Say whether its chromatographic logP is strictly beneath 4. Entry: `O=C(Nc1cc(Br)cc(NC(=O)C2CC2)n1)C1CC1`
Solution: criterion met

Problem: Check if chromatographic logP falls below 4 for CN(C(=O)C1CC1)c1cc(-c2ccc(OC(F)(F)F)cc2)cc(NC(=O)C2CC2)n1 [I-31] .
Solution: criterion met
